The measurements presented in this section are drawn from patent US12016896B2.

target: human immunoproteasome β5i (Homo sapiens, UniProt P28062); test: IC50 against chymotryptic activity of human immunoproteasome (Hu i-20S, Ac-ANW-AMC substrate); type: biochemical; settings: 0.4 nM Hu i-20S, 15 μM Ac-ANW-AMC, 0.02% SDS, pH 7.4, 37° C.
Observed Property: IC50 (µM)

C[C@@H](CC(=O)Nc1cccc2ccccc12)NC(=O)[C@H](CC(=O)NC(C)(C)C)NC(=O)CCc1ccccc1 ... 13.7
C[C@@H](CC(=O)NCc1cccc2ccccc12)NC(=O)[C@H](CC(=O)NC(C)(C)C)NS(=O)(=O)C1CC1 ... 0.141

P: Cc1ccc(S(=O)(=O)N[C@H](CC(=O)N[C@@H](C)CC(=O)NCc2cccc3ccccc23)CC(=O)NC(C)(C)C)cc1
Q: CC(C)(C)NC(=O)C[C@H](NC(=O)CCc1ccccc1)C(=O)NCCC(=O)NCc1cccc2ccccc12
Name the one with the greater IC50 value, either P or Q as given. The response must carry the label of the picked entry.
P
(P: 8.68 µM, Q: 0.655 µM)
